- targetOrTestSystem: FAD-linked sulfhydryl oxidase ALR (Homo sapiens, UniProt P55789)
- Sequence (P55789 whole entry): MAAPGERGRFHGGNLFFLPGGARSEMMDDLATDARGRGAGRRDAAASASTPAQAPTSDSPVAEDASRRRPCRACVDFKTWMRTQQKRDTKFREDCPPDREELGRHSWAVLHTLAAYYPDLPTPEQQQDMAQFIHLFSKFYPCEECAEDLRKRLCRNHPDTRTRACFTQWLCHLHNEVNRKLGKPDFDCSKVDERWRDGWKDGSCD
- experimentalProtocol: ALR-catalysed DTT oxidation blockers – biochemical, H2O2 detection, luminescence, cherry-pick, dose response (AID 493248)
Active and inactive are the calls of the source. No stated cut-off is given here; in the data, actives have a measured AC50 and inactives only a lower limit.
measuredMetric: AC50

AC50 recorded for this compound, Cn1c(=O)[nH]c(=O)c2c1nc(Br)n2CCCSc1nc2ccccc2o1 , is < 0.005 µM (active)

Memo: COc1cc(/C=N/NC(=O)c2cccs2)ccc1O , reported AC50: 1.65 µM (active)

Value of measured AC50 for the entry COc1ccc(N2CCN(C(=O)CCNS(=O)(=O)c3ccccc3)CC2)cc1 : 8.08 µM (active)

Field AC50 (entry CC(C)CC[n+]1ccccc1C=Cc1ccc(N(C)C)cc1 ) reads 1.36 µM (active)

Memo: CN(CC(=O)Nc1cccc2ccccc12)C(=O)c1ccc(NC(=O)CC#N)cc1 , reported AC50: 6.29 µM (active)

Record O=C(Nc1ccc(Nc2ccccc2)cc1)C1CC1 . Reported AC50: 0.875 µM (active)

AC50 reported for this compound Clc1ccc2[nH]c3c(c2c1)CCc1c[nH]nc1-3 : 0.129 µM (active)

AC50 recorded for this compound, O=C(CN1CCN(c2ccc(Cl)cc2)CC1)N1CCCC1 , is 0.657 µM (active)

AC50 for COc1ccc(C(=O)NCC(c2cccnc2)N2CCN(c3ccc(F)cc3)CC2)cc1OC (stereo unspecified) is < 0.005 µM (active)

Lab note: measured AC50 of Cc1ccc2[nH]c(C(=O)O)c(-c3ccccc3)c2c1 was 4.49 µM (active)

Record NNc1nc2ccc(F)cc2s1 . Reported AC50: 4.94 µM (active)

Cited source for all entries: ChEMBL document CHEMBL1201862
